Biological target: human ether-à-go-go-related gene (hERG) potassium channel (human, UniProt Q12809);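 note: peak tail current of the secondary pulse compared with the same well before compound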
Sequence (Q12809 whole entry, looked up): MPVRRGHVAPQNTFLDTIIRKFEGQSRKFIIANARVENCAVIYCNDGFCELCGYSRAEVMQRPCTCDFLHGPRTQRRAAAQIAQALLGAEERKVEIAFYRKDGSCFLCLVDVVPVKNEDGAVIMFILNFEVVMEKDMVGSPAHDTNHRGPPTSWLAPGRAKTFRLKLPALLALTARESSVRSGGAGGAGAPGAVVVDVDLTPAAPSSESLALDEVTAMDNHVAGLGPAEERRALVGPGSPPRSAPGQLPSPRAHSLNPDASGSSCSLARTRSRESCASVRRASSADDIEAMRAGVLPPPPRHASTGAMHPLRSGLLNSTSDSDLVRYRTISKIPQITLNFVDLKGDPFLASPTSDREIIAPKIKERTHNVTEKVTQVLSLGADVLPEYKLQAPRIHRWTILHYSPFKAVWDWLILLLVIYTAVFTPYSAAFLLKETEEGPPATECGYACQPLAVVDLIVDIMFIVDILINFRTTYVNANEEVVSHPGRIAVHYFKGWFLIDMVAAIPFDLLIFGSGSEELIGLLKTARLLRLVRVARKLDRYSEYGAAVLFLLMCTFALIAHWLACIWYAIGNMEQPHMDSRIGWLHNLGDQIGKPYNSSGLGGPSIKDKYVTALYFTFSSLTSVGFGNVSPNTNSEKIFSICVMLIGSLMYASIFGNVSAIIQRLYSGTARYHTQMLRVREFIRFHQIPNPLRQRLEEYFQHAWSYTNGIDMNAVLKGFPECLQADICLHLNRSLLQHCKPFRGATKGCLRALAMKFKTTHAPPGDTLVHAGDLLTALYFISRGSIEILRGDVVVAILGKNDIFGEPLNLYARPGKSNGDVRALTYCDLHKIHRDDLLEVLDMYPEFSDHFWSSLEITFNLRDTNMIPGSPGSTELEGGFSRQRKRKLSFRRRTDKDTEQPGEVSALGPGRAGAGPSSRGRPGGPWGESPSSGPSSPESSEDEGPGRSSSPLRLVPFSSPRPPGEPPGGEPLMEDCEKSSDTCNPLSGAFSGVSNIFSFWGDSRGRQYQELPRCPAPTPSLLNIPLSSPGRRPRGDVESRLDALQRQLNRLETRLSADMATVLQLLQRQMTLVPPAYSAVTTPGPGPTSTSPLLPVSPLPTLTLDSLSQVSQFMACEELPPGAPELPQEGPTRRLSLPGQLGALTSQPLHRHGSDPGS
Experiment: primary screen, population patch clamp on CHO cells stably expressing hERG; higher = less effect of the substance
Procedure: Briefly, Chinese hamster ovary (CHO) cells stably expressing the hERG channel were dislodged from tissue culture flasks and dispensed into PPC plates. […] During the recording, background leak currents were estimated by a 100 ms step to -80 mV from an initial holding potential of -70 mV and subtracted from the subsequent current measurement. The campaign was conducted in two phases using slight differences in recording protocol. […]
Among all 310,000 compounds or so, about 14,000 (4.5%) showed an effect of 50% or more. The effect is printed as a negative number. This excerpt belongs to a sample that is enriched for strong results.
Property measured: hERG current change (%, negative = inhibition) at 10uM (%)
Give just the number in %; leave the unit off.

// worked examples, hERG current change (%, negative = inhibition) at 10uM included
{"Compound": "CN1CC(=O)NC1=NC(=O)C12CC3CC(CC(C3)C1)C2", "Target entity": "human ether-à-go-go-related gene (hERG) potassium channel (human, UniProt Q12809)", "Recorded value": -8.73}
{"Compound": "CC1CCCN(S(=O)(=O)c2csc(C(N)=O)c2)C1 (stereo not shown)", "Target entity": "human ether-à-go-go-related gene (hERG) potassium channel (human, UniProt Q12809)", "Recorded value": 15.2}
{"Compound": "CN(C)c1ccc(C(=O)Nc2ccc(S(=O)(=O)NC3=NCCCCC3)cc2)cc1", "Target entity": "human ether-à-go-go-related gene (hERG) potassium channel (human, UniProt Q12809)", "Recorded value": -5.38}
{"Compound": "CC(C)C1=C2OC(N)=C(C#N)C(C#N)=C2C(C)CC1 (stereo not shown)", "Target entity": "human ether-à-go-go-related gene (hERG) potassium channel (human, UniProt Q12809)", "Recorded value": 9.98}
{"Compound": "COc1ccc(NC(=O)c2cc3ccccc3o2)cc1OC", "Target entity": "human ether-à-go-go-related gene (hERG) potassium channel (human, UniProt Q12809)", "Recorded value": -3.22}

Form field, hERG current change (%, negative = inhibition) at 10uM with human ether-à-go-go-related gene (hERG) potassium channel (human, UniProt Q12809), item CCOc1ccc(NC(=O)Nc2cc(C(=O)O)ccc2N2CC3CC(C2)c2cccc(=O)n2C3)cc1 (stereo not shown) : 12.4

Field hERG current change (%, negative = inhibition) at 10uM (human ether-à-go-go-related gene (hERG) potassium channel (human, UniProt Q12809)), entry O=C(NCC(c1ccco1)N1CCc2ccccc2C1)c1ccccc1Br (stereo not shown) : -37.5

So the reported hERG current change (%, negative = inhibition) at 10uM for COc1ccc([N+](=O)[O-])cc1NS(=O)(=O)c1ccccc1 , on human ether-à-go-go-related gene (hERG) potassium channel (human, UniProt Q12809), turned out to be 8.94

Item: COc1cc(=O)[nH]c(SCc2c(F)c(F)c(F)c(F)c2F)n1 | System: human ether-à-go-go-related gene (hERG) potassium channel (human, UniProt Q12809) | hERG current change (%, negative = inhibition) at 10uM: 0.443

The compound O=C(Nc1cccc(Br)c1)c1ccc(CN2CCc3ccccc3C2)cc1 , when measured on human ether-à-go-go-related gene (hERG) potassium channel (human, UniProt Q12809), yielded hERG current change (%, negative = inhibition) at 10uM of -1.55

====

Molecular target: human ether-à-go-go-related gene (hERG) potassium channel (human, UniProt Q12809);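 note: peak tail current of the secondary pulse compared with the same well before compound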
Assay: primary screen, population patch clamp on CHO cells stably expressing hERG; higher = less effect of the substance
Screen size: about 310,000 compounds; about 14,000 (4.5%) showed an effect of 50% or more. Effects have a minus sign here. This is one part of a sample in which strong results are shown more often than they occur.
Listed here: items and their measured hERG current change (%, negative = inhibition) at 10uM.
Respond numerically; units are % and should not be typed.

Guide cases for hERG current change (%, negative = inhibition) at 10uM, answers given:
{"Compound": "CCOC(=O)c1cn(CC)c2ccc(S(=O)(=O)N3CC(C)CC(C)C3)cc2c1=O (stereo not drawn)", "Recorded value": -21.7}
{"Compound": "Cl.O=[N+]([O-])c1ccc(CN2CCN(c3ccc4ccccc4n3)CC2)cc1", "Recorded value": -12.1}
{"Compound": "CCOc1cc(/C=C(/C#N)c2nc3ccccc3[nH]2)ccc1OCc1ccc(C(=O)O)o1", "Recorded value": 3.75}
{"Compound": "C=CCc1cc(OC)ccc1OCCN1CC(C)OC(C)C1.O=C(O)C(=O)O (stereo not drawn)", "Recorded value": -9.85}
{"Compound": "CC1CCN(CCCCOc2ccccc2-c2ccccc2)CC1.O=C(O)C(=O)O", "Recorded value": -72.6}

hERG current change (%, negative = inhibition) at 10uM reading for COCCNC(=O)/C(C#N)=C/c1ccc(N2CCOCC2)o1 : 9.87

Quick note, hERG current change (%, negative = inhibition) at 10uM for C=CCc1cc(Cl)ccc1OCCN1CC(C)OC(C)C1.O=C(O)C(=O)O (stereo not drawn) landed at -53.1

# compound COc1ccc(S(=O)(=O)n2ccc(-c3ccc(OCCN(C)c4ccccn4)cc3)n2)cc1 ; its hERG current change (%, negative = inhibition) at 10uM = 11.4

Measured hERG current change (%, negative = inhibition) at 10uM of CCN1C(=O)/C(=C/c2ccc(OC)c(OC)c2)N=C1SCC(=O)NCc1ccco1 : -15.1

Noted for Cc1ccc(NC(=O)Cn2c(/C=C/c3ccccc3)nc3ccccc32)cc1C : its hERG current change (%, negative = inhibition) at 10uM reads -0.723

// sample Cc1ccc(CS(=O)(=O)c2ccc(C(=O)N3CCN(c4ccccn4)CC3)cc2[N+](=O)[O-])cc1 , its hERG current change (%, negative = inhibition) at 10uM was -43.9

The reported value for O=C(O)C(=O)O.c1ccc(-c2ccccc2OCCOCCN2CCCCC2)cc1 in terms of hERG current change (%, negative = inhibition) at 10uM is -44.7

Sample COCCN1C(=O)/C(=C/c2ccc(OCc3ccc(C(=O)O)cc3)c(OC)c2)SC1=Nc1ccccc1 ; hERG current change (%, negative = inhibition) at 10uM observed: 7.58

// recorded hERG current change (%, negative = inhibition) at 10uM for CC1CN(CCOc2ccccc2-c2ccccc2)CC(C)O1.O=C(O)C(=O)O (stereo not drawn) : -9.99

Kindly note the recorded hERG current change (%, negative = inhibition) at 10uM for Cl.c1ccc(CN2CCN(CCN3CCn4c3nc3ccccc34)CC2)cc1 , which is -75.8

So for Cc1cc(C(=O)NCCC(c2ccccc2)c2ccccc2)c(C)o1 , the logged hERG current change (%, negative = inhibition) at 10uM turned out to be -17.5

Entry under test: CC(O)c1nc2ccccc2n1Cc1ccc([N+](=O)[O-])cc1 (stereo not drawn) . Its hERG current change (%, negative = inhibition) at 10uM was -73.4

Record summary for Cc1ccc(C(NC(=O)c2ccccc2S(C)(=O)=O)c2ccccc2)cc1 (stereo not drawn) : reported hERG current change (%, negative = inhibition) at 10uM = -30.3

====

Molecular target: human ether-à-go-go-related gene (hERG) potassium channel (human);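 note: peak tail current of the secondary pulse compared with the same well before compound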
Assay: primary screen, population patch clamp on CHO cells stably expressing hERG; higher = less effect of the substance
Among all 310,000 compounds or so, about 14,000 (4.5%) showed an effect of 50% or more. The effect is printed as a negative number. For the sample, strong results were picked, then their nearest neighbours and some compounds at random.
The following compounds are shown together with reported hERG current change (%, negative = inhibition) at 10uM values.
# number then unit; no other words

The compound listed as CC1(c2cccc(Br)c2)NC(=O)N(CC(=O)Nc2ccc3c(c2)OCO3)C1=O (stereo not shown) shows hERG current change (%, negative = inhibition) at 10uM equal to -12.5%

// CS(=O)(=O)N1CCC(C(=O)Nc2cccc(Cl)c2)CC1 : hERG current change (%, negative = inhibition) at 10uM value = 2.18%

Reported hERG current change (%, negative = inhibition) at 10uM for O=C(c1ccco1)N1CCN(c2ncnc3c2oc2ccccc23)CC1 was -55.4%

Recorded result, CS(=O)(=O)N1CCC(C(=O)Nc2cccc(F)c2)CC1 , hERG current change (%, negative = inhibition) at 10uM: 15.2%

Sample O=C(Nc1cccc(-c2cccc(F)c2)c1)C1CCN(C2CCOCC2)CC1 ; hERG current change (%, negative = inhibition) at 10uM observed: -75%

Short answer for Cc1ccc(N2CCN(CCc3nc4cc(NC(=O)c5ccco5)ccc4n3C)CC2)cc1 : hERG current change (%, negative = inhibition) at 10uM was -70.7%

Reported hERG current change (%, negative = inhibition) at 10uM of Clc1ccc(N2CCN(c3ncnc4c3oc3ccccc34)CC2)cc1 : 4.58%

The compound listed as Cc1nc(N2CCN(C(=O)c3ccco3)CC2)c2oc3ccccc3c2n1.Cl has a reported hERG current change (%, negative = inhibition) at 10uM of -54.8%

get_value(item= N#Cc1ccsc1NC(=O)CN1CCN(Cc2ccccc2)CC1 , readout=hERG current change (%, negative = inhibition) at 10uM) returns -66.4%

Short answer for Cc1nc(N2CCC(C)CC2)c2oc3ccccc3c2n1 : hERG current change (%, negative = inhibition) at 10uM was 6.63%

Per the record, O=C(c1ccco1)N1CCN(c2ncccn2)CC1 has hERG current change (%, negative = inhibition) at 10uM of -18.2%

Memo: COc1ccccc1CNC(=O)C(=O)c1cn(CC(=O)N2CCCC2)c2ccccc12 , reported hERG current change (%, negative = inhibition) at 10uM: 15.1%

Recorded result, CC(=O)NC1=NN(C(C)=O)C(C)(c2ccco2)S1 (stereo not shown) , hERG current change (%, negative = inhibition) at 10uM: 14.6%

Memo: CCc1nc(N2CCC(C)CC2)c2oc3ccccc3c2n1.Cl , reported hERG current change (%, negative = inhibition) at 10uM: 5.55%

Lab book: hERG current change (%, negative = inhibition) at 10uM of O=C(Nc1cccc(F)c1)C1CCCCC1 noted as -9.22%
